# TARGET_ENTITY: Thyrotropin-releasing hormone receptor (Homo sapiens)
# ASSAY_NAME: qHTS assay to identify small molecule agonists of the thyrotropin-releasing hormone receptor (TRHR) signaling pathway (AID 1346891);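 also: HEK293 cells expressing TRHR with calcium dye readout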
# APPLIED_CONDITIONS: TRHR-HEK293 calcium fluorescence, agonist mode; series mostly up to 57.6 µM
Active and inactive are the calls of the source. Calls follow the shape of the full dose curve.
ENDPOINT: outcome

Some entries whose results are on file:
C#C[C@]1(O)C=C[C@H]2[C@@H]3CCC4=CC(=O)CC[C@@H]4[C@H]3CC[C@@]21CC: inactive
CCCCN(CCCCO)N=O: inactive
CCC(=O)c1ccccc1: inactive
CN1C[C@@H](NS(=O)(=O)N(C)C)C[C@@H]2c3cccc4c3c(cn4C)C[C@H]21: inactive
CC(=O)CC(c1ccc(Cl)cc1)c1c(O)c2ccccc2oc1=O (configuration not stated): inactive
CCOP(=S)(OCC)Oc1ncn(-c2ccccc2)n1: inactive
CC1CCCCC1NC(=O)Nc1ccccc1 (configuration not stated): inactive
O=C(Oc1ccc(Br)cc1)N1CCN2CCC1CC2: inactive
COCC(=O)N(c1c(C)cccc1C)N1CCOC1=O: inactive
COP(=S)(OC)Oc1c(Cl)cc(C)cc1Cl: inactive

Q: For "C[C@H]1CCC[C@H](O)CCCCCc2cc(O)cc(O)c2C(=O)O1" , what is its reported outcome?
A: inactive

Q: Also need "C1CCC(C2CCCCC2)CC1" , thanks.
A: inactive

###

# TARGET_ENTITY: Estrogen receptor (Homo sapiens) (UniProt P03372)
# Sequence (P03372 whole entry, looked up): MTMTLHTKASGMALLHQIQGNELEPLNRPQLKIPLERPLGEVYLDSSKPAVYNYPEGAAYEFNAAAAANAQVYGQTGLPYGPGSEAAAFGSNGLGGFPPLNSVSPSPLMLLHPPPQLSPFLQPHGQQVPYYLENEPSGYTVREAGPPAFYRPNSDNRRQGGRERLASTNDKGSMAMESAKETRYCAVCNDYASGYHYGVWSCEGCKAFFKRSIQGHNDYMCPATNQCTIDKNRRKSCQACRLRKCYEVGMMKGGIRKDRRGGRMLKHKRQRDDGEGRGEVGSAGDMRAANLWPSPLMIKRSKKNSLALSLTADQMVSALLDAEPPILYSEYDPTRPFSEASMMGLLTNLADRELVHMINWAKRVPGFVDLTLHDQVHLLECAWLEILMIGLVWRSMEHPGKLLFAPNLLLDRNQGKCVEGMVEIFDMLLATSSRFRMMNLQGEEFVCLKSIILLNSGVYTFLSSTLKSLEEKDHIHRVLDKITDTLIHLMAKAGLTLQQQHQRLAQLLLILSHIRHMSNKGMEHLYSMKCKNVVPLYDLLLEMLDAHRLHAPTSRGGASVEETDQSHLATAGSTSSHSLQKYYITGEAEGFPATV
# ASSAY_NAME: qHTS assay to identify small molecule antagonists of the estrogen receptor alpha (ER-alpha) signaling pathway using the BG1 cell line in the presence of 0.1 nM 17-beta-estradiol (AID 1259244); also: nearly all actives have a fitted effect of over 50% in size
# APPLIED_CONDITIONS: VM7Luc4E2 (BG1) ERE-luciferase, antagonist mode, 0.1 nM E2, 22 h; series mostly up to 92.4 µM
Records with an inconclusive call do not appear. The source made the active and inactive calls. Calls follow the shape of the dose curve; as a rule, active = well fitted inhibition curve with a large enough effect in the repeat runs; inconclusive = weak or mixed curves; inactive = no such curve, though single readings can be large or run the other way.
Pick one and only one: active, inactive

CCc1cc2c(s1)-n1c(C)nnc1CN=C2c1ccccc1Cl: active

Q: Outcome logged for "c1cc[c]([Hg][c]2ccccc2)cc1" in this assay:
A: inactive

Q: Also need "CCS(=O)(=O)C(C)(C)S(=O)(=O)CC" , thanks.
A: inactive

Q: Also need "CNCC(=O)c1ccc(O)c(O)c1" , thanks.
A: inactive

Q: Also need CC(CCc1ccccc1)NC(C)C(O)c1ccc(O)cc1 (stereo not given) , thanks.
A: inactive

Q: Also need "O=[N+]([O-])c1cc(Cl)c(Cl)c(Cl)c1" , thanks.
A: inactive

Q: Also need "Cc1nc(N)nc(N)n1" , thanks.
A: inactive

###

# TARGET_ENTITY: Nuclear receptor subfamily 1 group I member 2 (Homo sapiens) (UniProt O75469)
# Sequence (O75469 whole entry, looked up): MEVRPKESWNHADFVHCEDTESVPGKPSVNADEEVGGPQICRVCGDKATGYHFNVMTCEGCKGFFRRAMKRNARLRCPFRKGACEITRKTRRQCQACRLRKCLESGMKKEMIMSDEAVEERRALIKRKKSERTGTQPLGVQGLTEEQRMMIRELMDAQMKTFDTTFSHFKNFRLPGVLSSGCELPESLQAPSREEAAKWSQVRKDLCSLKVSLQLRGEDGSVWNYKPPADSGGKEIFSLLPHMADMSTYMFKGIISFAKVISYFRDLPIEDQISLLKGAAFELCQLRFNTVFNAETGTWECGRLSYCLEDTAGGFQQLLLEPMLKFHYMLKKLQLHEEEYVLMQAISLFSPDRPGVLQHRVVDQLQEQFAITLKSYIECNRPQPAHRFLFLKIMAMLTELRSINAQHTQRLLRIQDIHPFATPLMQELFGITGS
# ASSAY_NAME: Human pregnane X receptor (PXR) small molecule agonists, qHTS assay (AID 1346982); also: nearly all actives have a fitted effect of over 35% in size
# APPLIED_CONDITIONS: PXR-Luc HepG2, CYP3A4 luciferase reporter, 24 h; series mostly up to 92.4 µM
Inconclusive results are not listed. Calls of active or inactive are those of the source. Calls come from the whole dose curve; as a rule, active = well fitted activation curve with a large enough effect in the repeat runs; inconclusive = weak or mixed curves; inactive = no such curve, though single readings can be large or run the other way.
Pick one and only one: True = active, False = inactive

// below: answered compounds
CC(=O)CCc1ccc2c(c1)OCO2: False
CNCC(=O)c1ccc(O)c(O)c1: False
CC(C)COP(=O)(OCC(C)C)OCC(C)C: False
O=C1OC(=O)C2C1C1(Cl)C(Cl)=C(Cl)C2(Cl)C1(Cl)Cl (centres undefined): False

Q: Outcome logged for CC(CC(C#N)(c1ccccc1)c1ccccc1)N(C)C (centres undefined) in this assay:
A: False

Q: Also need "CCN(Cc1ccc(Cl)nc1)/C(=C/[N+](=O)[O-])NC" , thanks.
A: False

Q: Also need CC(COc1ccc(Oc2ccccc2)cc1)Oc1ccccn1 (centres undefined) , thanks.
A: True

Q: Also need "C[N+](=O)[O-]" , thanks.
A: False

Q: Also need "O=C(Nc1ccccc1)N(Cc1ccc(Cl)cc1)C1CCCC1" , thanks.
A: True

Q: Also need COc1ccc2c(c1OC)CN1CCc3cc4c(cc3C1C2)OCO4 (centres undefined) , thanks.
A: False

Q: Also need "CCC#N" , thanks.
A: False

Q: Also need "ClCC(Cl)Cl" , thanks.
A: False

Q: Also need "CCC1(c2ccccc2)C(=O)NC(=O)NC1=O" , thanks.
A: False

Q: Also need "CCC(C)(C)c1cc(-n2nc3ccccc3n2)c(O)c(C(C)(C)CC)c1" , thanks.
A: True

###

# ASSAY_NAME: qHTS assay to identify small molecule HDAC inhibitors (AID 1259364);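 also: wild-type HCT-116 cells with endogenous class I/II HDAC activity; top concentration of the series differs between compounds; nearly all actives have a fitted effect of over 45% in size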
# APPLIED_CONDITIONS: HCT-116 HDAC-Glo I/II luminescence, 2 h; series mostly up to 92.4 µM
Records with an inconclusive call do not appear. Activity calls are given as the source filed them. Calls follow the shape of the dose curve; as a rule, active = well fitted inhibition curve with a large enough effect in the repeat runs; inconclusive = weak or mixed curves; inactive = flat fitted curve, though single readings scatter.
ENDPOINT: outcome

Some entries whose results are on file:
C(CCOCC1CO1)COCC1CO1 (configuration not stated): inactive
COc1cc(OC)nc(Sc2cccc(Cl)c2C(=O)O)n1: inactive
OC(Cn1cncn1)(c1ccc(F)cc1)c1ccccc1F (configuration not stated): inactive
CC1CCC(=O)O1 (configuration not stated): inactive
CC(C(=O)c1ccccc1)N(C)C (configuration not stated): inactive

Q: For "CN1C(=S)CN=C(c2ccccc2)c2cc(Cl)ccc21" , what is its reported outcome?
A: inactive

Q: Also need "CN1C[C@@H](NS(=O)(=O)N(C)C)C[C@@H]2c3cccc4c3c(cn4C)C[C@H]21" , thanks.
A: inactive

Q: Also need "O=P(O)(Oc1ccccc1)Oc1ccccc1" , thanks.
A: inactive

###

# ASSAY_NAME: qHTS assay to identify small molecule agonists of the estrogen receptor alpha (ER-alpha) signaling pathway in the presence of an antagonist - cell viability counter screen (AID 1259386);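 also: cells exposed to compounds for 22 h at 37 °C before the viability read; nearly all actives have a fitted effect of over 30% in size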; also: potency is read from the fitted curve at half-maximal effect
# APPLIED_CONDITIONS: VM7Luc4E2 viability, CellTiter-Fluor fluorescence, 22 h; series mostly up to 92.4 µM
Records with an inconclusive call do not appear. The source made the active and inactive calls. The call rests on the fitted dose curve; in most records, active means well fitted cell-killing curve with a large enough effect in the repeat runs; inconclusive means weak or mixed curves, or effect the other way; inactive means no such curve, though single readings can be large or run the other way.
ENDPOINT: Potency

Some entries whose results are on file:
CCOC(=O)CP(=O)(OCC)OCC: inactive
COC(=O)C(C)Oc1ccc(Oc2ccc(Cl)cc2Cl)cc1 (configuration not stated): inactive
CN1CCC(O)(c2ccc(F)cc2)C(C(=O)c2ccc(F)cc2)C1 (configuration not stated): inactive
Nc1c(Br)cc([N+](=O)[O-])cc1[N+](=O)[O-]: 31 µM (active)
CC1=NNC(=O)N(/N=C/c2cccnc2)C1: inactive

Q: For "N#Cc1ccncc1" , what is its reported Potency?
A: inactive

Q: Also need CC(C)NCC(O)c1ccc(N)c(C#N)c1 (configuration not stated) , thanks.
A: inactive

Q: Also need "O=S(=O)(O)C(F)(F)C(F)(F)C(F)(F)C(F)(F)C(F)(F)C(F)(F)F" , thanks.
A: inactive

###

# ASSAY_NAME: qHTS assay to identify small molecule agonists of the peroxisome proliferator-activated receptor delta (PPARd) signaling pathway - cell viability counter screen (AID 743211); also: nearly all actives have a fitted effect of over 55% in size
# APPLIED_CONDITIONS: PPARd-bla HEK293H viability, CellTiter-Glo luminescence, 17 h; series mostly up to 62.6 µM
Inconclusive results are not listed. Calls of active or inactive are those of the source. Calls come from the whole dose curve; as a rule, active = well fitted cell-killing curve with a large enough effect in the repeat runs; inconclusive = weak or mixed curves; inactive = no such curve, though single readings can be large or run the other way.
Pick one and only one: active, inactive

O=[N+]([O-])c1ccc2c3c(cccc13)CC2: inactive

Q: Outcome logged for "c1cc2c(c(N3CCNCC3)c1)OCCO2" in this assay:
A: inactive

###

# TARGET_ENTITY: Cytochrome P450 2C9 (Homo sapiens)
# ASSAY_NAME: Cytochrome P450 Family 2 Subfamily C Member 9 (CYP2C9) small molecule antagonists: luciferase reporter qHTS assay (AID 1671198); also: nearly all actives have a fitted effect of over 50% in size
# APPLIED_CONDITIONS: P450-Glo CYP2C9 enzyme assay, luciferin luminescence; series mostly up to 115 µM
Records with an inconclusive call do not appear. The source made the active and inactive calls. Calls follow the shape of the dose curve; as a rule, active = well fitted inhibition curve with a large enough effect in the repeat runs; inconclusive = weak or mixed curves; inactive = no such curve, though single readings can be large or run the other way.
Pick one and only one: y for active, n for inactive

CC1CN1P(=O)(N1CC1C)N1CC1C (centres undefined): n
O=C(CCN1CC1)OCC(CO)(COC(=O)CCN1CC1)COC(=O)CCN1CC1: n
CCOP(=O)(OCC)OP(=O)(OCC)OCC: n
OCCBr: n

Q: Outcome logged for CCCSP(=S)(OCC)Oc1ccc(Cl)cc1Cl (centres undefined) in this assay:
A: y

Q: Also need "COc1cccc(C(=O)NN(C(=O)c2cc(C)cc(C)c2)C(C)(C)C)c1C" , thanks.
A: y

Q: Also need "COC(=O)C1=CCCN(C)C1" , thanks.
A: n

Q: Also need "CCOP(=S)(OCC)SCSP(=S)(OCC)OCC" , thanks.
A: y

Q: Also need "COC(=O)COc1ccc(Cl)cc1Cl" , thanks.
A: n

Q: Also need "CC(C)CP(=S)(S)CC(C)C" , thanks.
A: y

Q: Also need "CNC(=O)N(C)c1nc2ccccc2s1" , thanks.
A: y

Q: Also need N#CC(O)c1ccccc1 (centres undefined) , thanks.
A: n

Q: Also need CC(COc1ccc(Oc2ccccc2)cc1)Oc1ccccn1 (centres undefined) , thanks.
A: y

Q: Also need O=c1oc2ccccc2c(O)c1C1CCCc2ccccc21 (centres undefined) , thanks.
A: y
